Source listed as the supplement of paper PMC11451515.

system: SEM cells; experiment: cell viability relative to DMSO control; higher = less cytotoxic; settings: RPMI 5 mM glucose + 10% FBS; 48 h; 1.71 µM
The compounds listed here are annotated with their cell viability.
# unit: % | format: bare number

A selection of reference data follows.
{"columns": ["SUBSTANCE_SMILES", "cell viability [%]"],
 "data": [
  ["CC[C@H]1OC(=O)[C@H](C)[C@@H](O[C@H]2C[C@@](C)(OC)[C@@H](O)[C@H](C)O2)[C@H](C)[C@@H](O[C@@H]2O[C@@H](C)C[C@H](N(C)C)[C@H]2O)[C@](C)(O)C[C@@H](C)C(=O)[C@H](C)[C@@H](O)[C@]1(C)O", 106],
  ["CCC[C@@H]1C[C@@H](C(=O)N[C@@H]([C@H]2O[C@H](SC)[C@H](O)[C@@H](O)[C@H]2O)[C@@H](C)O)N(C)C1.Cl", 111],
  ["Cl.c1cnc2cc3c(cc2n1)C1CNCC3C1", 105],
  ["CCOC(=O)Nc1ccc(NCc2ccc(F)cc2)cc1N", 111],
  ["CC(=O)N1CCN(c2ccc(OCc3nn(C)c(C)c3-c3cccc4c(CCCOc5cc(C)c(Cl)c(C)c5)c(C(=O)O)n(Cc5cccnc5)c34)cc2)CC1", 100]
]}

Now let's try a different one.
// query cell viability value for entry C[C@H]([C@H](O)CCC(C)(C)O)[C@H]1CC[C@@]2(O)C/3=C/C(=O)[C@@H]4C[C@@H](O)[C@@H](O)C[C@]4(C)[C@H]3CC[C@]12C
123

----------
test system: NOMO1; test: cell viability relative to DMSO control; higher = less cytotoxic; settings: HPLM + 10% dialyzed FBS; 48 h; 0.00702 µM
ENDPOINT_LABEL: cell viability (%)
# unit: % | format: bare number

{"columns": ["SUBSTANCE_SMILES", "ENDPOINT_LABEL", "NUMERIC_VALUE"],
 "data": [
  ["COc1cc2c(Nc3ccc(NC(=O)c4ccccc4)cc3)ncnc2cc1OCCCN1CCOCC1", "cell viability", 128],
  ["C[C@H]1CN(C[C@@H](C)O1)CC(=O)NC2=CC=C3SC4=C(CC3=C2)C=CC=C4\\C5=C\\C(=O)\\C=C(/O5)N6CCOCC6", "cell viability", 108],
  ["O=C1Nc2ccccc2/C1=C1\\Nc2ccccc2C1=O", "cell viability", 112]
]}

Now let's try a different one.
// query cell viability value for entry CN(C)CCOC(c1ccccc1)c1ccccc1
105

----------
The compounds listed here are annotated with their cell viability.
tested on: NOMO1; experiment: cell viability relative to DMSO control; higher = less cytotoxic; conditions: RPMI 5 mM glucose + 10% dialyzed FBS; 48 h; 46.1 µM
# unit: % | format: bare number

A selection of reference data follows.
{"columns": ["COMPOUND", "ENDPOINT_LABEL", "NUMERIC_VALUE"],
 "data": [
  ["COc1cc2nccc(Oc3ccc(NC(=O)C4(C(=O)Nc5ccc(F)cc5)CC4)cc3)c2cc1OC", "cell viability", 47.1],
  ["Cc1ccc(-n2nc(C(C)(C)C)cc2NC(=O)Nc2ccc(OCCN3CCOCC3)c3ccccc23)cc1", "cell viability", 96.2],
  ["Clc1cccc(-c2nnnn2Cc2cccnc2)c1Cl", "cell viability", 47.8]
]}

// query cell viability value for entry C#CCN(C)[C@H](C)Cc1ccccc1
82.7

// query cell viability value for entry CCOC(=O)C/1=C(C)/NC(=S)NC1C2=CC=CC(=C2)O (configuration not stated)
23.3

// query cell viability value for entry COc1cc2nccc(Oc3ccc(NC(=O)Nc4cc(C)on4)c(Cl)c3)c2cc1OC
70.9

// query cell viability value for entry CCC1=C[C@@H]2CN(C1)Cc1c([nH]c3ccccc13)[C@@](C(=O)OC)(c1cc3c(cc1OC)N(C)[C@H]1[C@@](O)(C(=O)OC)[C@H](OC(C)=O)[C@]4(CC)C=CCN5CC[C@]31[C@@H]54)C2
20.5

// query cell viability value for entry NC1CCC(N[C@@H]2C[C@H]2c2ccccc2)CC1 (some centres not stated)
84

// query cell viability value for entry Cc1cc(Nc2ncc(Cl)c(Nc3ccccc3[S+](=O)([O-])C(C)C)n2)c(OC(C)C)cc1C1CCNCC1
4.03

// query cell viability value for entry COc1nc(-c2ccc3c(c2)OCO3)n(-c2ccc(NC(=O)CSc3ccccc3)cc2)n1
23.1

// query cell viability value for entry COc1cc(N2CCC(C(N)=O)CC2)ccc1Nc1nc(N)c(Cl)c(Nc2ccccc2[S+](=O)([O-])C(C)C)n1
4.26

----------
The compounds listed here are annotated with their cell viability.
test system: NOMO1; assay: cell viability relative to DMSO control; higher = less cytotoxic; details: HPLM + 10% dialyzed FBS; 48 h; 0.19 µM
# unit: % | format: bare number

A selection of reference data follows.
{"columns": ["COMPOUND", "TEST_TARGET", "OUTPUT_UNIT", "NUMERIC_VALUE"],
 "data": [
  ["Cc1[nH]c(/C=C2\\C(=O)Nc3ccc([S+](=O)([O-])N(C)c4cccc(Cl)c4)cc32)c(C)c1C(=O)N1CCN(C)CC1", "NOMO1", "%", 99.2],
  ["CO[C@H]1C[C@@H]2CC[C@@H](C)[C@@](O)(O2)C(=O)C(=O)N2CCCC[C@H]2C(=O)O[C@H]([C@H](C)C[C@@H]2CC[C@@H](OP(C)(C)=O)[C@H](OC)C2)CC(=O)[C@H](C)/C=C(\\C)[C@@H](O)[C@@H](OC)C(=O)[C@H](C)C[C@H](C)/C=C/C=C/C=C/1C", "NOMO1", "%", 113],
  ["Cc1ccc(C(C)(O)c2nc3ccccc3s2)c(C)c1 (stereo unspecified)", "NOMO1", "%", 127],
  ["COc1cc2nccc(Oc3ccc(NC(=O)C4(C(=O)Nc5ccc(F)cc5)CC4)cc3)c2cc1OC", "NOMO1", "%", 101],
  ["COc1cc2c(Nc3ccc(NC(=O)c4ccccc4)cc3)ncnc2cc1OCCCN1CCOCC1", "NOMO1", "%", 133]
]}

Now let's try a different one.
Item: COc1cc(N2CCC(C(N)=O)CC2)ccc1Nc1nc(N)c(Cl)c(Nc2ccccc2[S+](=O)([O-])C(C)C)n1 Test system: NOMO1 Read-out: cell viability Value: ?
96.5

----------
system: P12-Ichikawa; assay: cell viability relative to DMSO control; higher = less cytotoxic; settings: HPLM + 10% dialyzed FBS; 48 h; 0.00702 µM
ENDPOINT_LABEL: cell viability (%)
# unit: % | format: bare number

{"columns": ["COMPOUND", "cell viability / %"],
 "data": [
  ["CN(C)Cc1ccc(-c2nc3cccc4c3n2CCNC4=O)cc1", 105],
  ["CCOC(=O)C/1=C(C)/NC(=S)NC1C2=CC=CC(=C2)O (configuration not stated)", 115],
  ["Cc1ccc(-n2nc(C(C)(C)C)cc2NC(=O)Nc2ccc(OCCN3CCOCC3)c3ccccc23)cc1", 113]
]}

// query cell viability value for entry Cc1cc(O)c2c3c4c(cc(O)c13)C(C)(C)C(=O)c1c(O)cc(O)c(c1-4)C2=O
111

// query cell viability value for entry Fc1ccc(C(c2ccc(F)cc2)N2CCN(C/C=C/c3ccccc3)CC2)cc1
111

// query cell viability value for entry O=C(O)[C@H](Cc1c[nH]c2ccccc12)N1C(=O)c2ccccc2C1=O
104

// query cell viability value for entry Cc1ccc(C(C)(O)c2nc3ccccc3s2)c(C)c1 (configuration not stated)
103

----------
system: SEM cells; test: cell viability relative to DMSO control; higher = less cytotoxic; conditions: RPMI 5 mM glucose + 10% dialyzed FBS; 48 h; 5.12 µM
ENDPOINT_LABEL: cell viability (%)
# unit: % | format: bare number

A selection of reference data follows.
{"columns": ["COMPOUND", "cell viability, %"],
 "data": [
  ["O=C(Cc1cccc(OC(F)(F)F)c1)Nc1ccc(CCCCc2nnc(NC(=O)Cc3ccccn3)s2)nn1", 56.7],
  ["CO[C@H]1C[C@@H]2CC[C@@H](C)[C@@](O)(O2)C(=O)C(=O)N2CCCC[C@H]2C(=O)O[C@H]([C@H](C)C[C@@H]2CC[C@@H](OP(C)(C)=O)[C@H](OC)C2)CC(=O)[C@H](C)/C=C(\\C)[C@@H](O)[C@@H](OC)C(=O)[C@H](C)C[C@H](C)/C=C/C=C/C=C/1C", 71.9],
  ["O=C(NC1CCNCC1)c1n[nH]cc1NC(=O)c1c(Cl)cccc1Cl", 7.87]
]}

Now let's try a different one.
// query cell viability value for entry Cc1cc(O)c2c3c4c(cc(O)c13)C(C)(C)C(=O)c1c(O)cc(O)c(c1-4)C2=O
97.4
